- ASSAYED_SYSTEM: 5-HT2A receptors (Mus musculus, UniProt P35363)
- Sequence (P35363 whole entry): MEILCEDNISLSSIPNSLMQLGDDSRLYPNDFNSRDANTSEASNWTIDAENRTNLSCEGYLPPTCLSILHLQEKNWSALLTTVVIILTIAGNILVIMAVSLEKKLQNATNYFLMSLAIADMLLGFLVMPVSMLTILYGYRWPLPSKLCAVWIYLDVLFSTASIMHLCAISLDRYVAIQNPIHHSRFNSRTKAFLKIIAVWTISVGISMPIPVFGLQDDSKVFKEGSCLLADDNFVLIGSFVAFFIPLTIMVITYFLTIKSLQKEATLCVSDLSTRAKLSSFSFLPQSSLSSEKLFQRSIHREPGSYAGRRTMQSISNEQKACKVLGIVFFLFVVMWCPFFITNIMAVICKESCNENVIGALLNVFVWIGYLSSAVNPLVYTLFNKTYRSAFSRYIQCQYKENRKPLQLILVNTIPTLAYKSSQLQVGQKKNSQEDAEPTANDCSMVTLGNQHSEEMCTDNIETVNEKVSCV
- TEST_SUMMARY: Psilocybin-induced head twitch response in mice, 5-HT2A antagonist given i.v. after psilocybin
- Assay type: in vivo, C57BL/6J mice
- Design: widely used to explore the effect of treatments on 5-HT2A receptors in vivo; from tissue; host or cells: whole living male C57BL/6J mice (behavioural read-out)
- CONDITIONS_USED: summary of Examples 1-17; antagonist administered after psilocybin
MEASURE: Result (Psilocybin Combinations tested, summary)

| STRUCTURE_NOTATION | ASSAYED_SYSTEM | RESULT_VALUE |
| --- | --- | --- |
| Cc1nc2sccn2c(=O)c1CCN1CCC(=C(c2ccc(F)cc2)c2ccc(F)cc2)CC1 | 5-HT2A receptors (Mus musculus, UniProt P35363) | full ending |
| COc1ccc(NC(=O)Nc2ccc(F)cc2F)cc1-c1c(Br)cnn1C | 5-HT2A receptors (Mus musculus, UniProt P35363) | partial suppression |
| COc1cccc([C@H](O)C2CCN(CCc3ccc(F)cc3)CC2)c1OC | 5-HT2A receptors (Mus musculus, UniProt P35363) | full ending |
| O=c1[nH]c2ccccc2n1CCN1CCN(c2cccc(C(F)(F)F)c2)CC1 | 5-HT2A receptors (Mus musculus, UniProt P35363) | partial suppression |
| N#Cc1c[nH]c2c(C(=O)N3CCN(CCc4ccc(F)cc4)CC3)cccc12 | 5-HT2A receptors (Mus musculus, UniProt P35363) | full ending |

###

- ASSAYED_SYSTEM: 5-HT2A receptors (Mus musculus, UniProt P35363)
- TEST_SUMMARY: Psilocybin-induced head twitch response in mice, 5-HT2A antagonist given i.v. after psilocybin
- Assay type: in vivo, C57BL/6J mice
- Set-up: widely used to explore the effect of treatments on 5-HT2A receptors in vivo; from tissue; host or cells: whole living male C57BL/6J mice (behavioural read-out)
- CONDITIONS_USED: psilocybin 2 mg/kg i.p.; antagonist 1 mg/kg i.v. after 7 min; monitored until 40 min after agonist dosing
- Procedure: See, Keller and Umbreit, Science, 1956, 124: 723). […] Male C57BL/6J mice (approximately 25 g) was group housed in stock room B20D of the Saretius animal at the University of Reading. […] At T=−60 min, C57BL/6J mice were individually housed into transparent observation cages with bedding removed and left to habituate. […] Following dosing, mice were replaced into the heated cages and head-twitch responses continuously scored for 7 min. […]
MEASURE: head-twitch response (cumulative head-twitches)

| STRUCTURE_NOTATION | RESULT_VALUE |
| --- | --- |
| N#Cc1c[nH]c2c(C(=O)N3CCN(CCc4ccc(F)cc4)CC3)cccc12 | completely suppressed |
| O=c1[nH]c2ccccc2n1CCN1CCN(c2cccc(C(F)(F)F)c2)CC1 | partially suppressed |
| COc1cccc([C@H](O)C2CCN(CCc3ccc(F)cc3)CC2)c1OC | completely suppressed |
| Cc1nc2sccn2c(=O)c1CCN1CCC(=C(c2ccc(F)cc2)c2ccc(F)cc2)CC1 | completely suppressed |
| COc1ccc(NC(=O)Nc2ccc(F)cc2F)cc1-c1c(Br)cnn1C | partially suppressed |

###

- ASSAYED_SYSTEM: UniProt:P35363
- TEST_SUMMARY: LSD-induced head twitch response in mice, 5-HT2A antagonist given i.v. after LSD
- Format: in vivo, C57BL/6J mice
- Parameters: widely used to explore the effect of treatments on 5-HT2A receptors in vivo; from tissue; host or cells: whole living male C57BL/6J mice (behavioural read-out)
- CONDITIONS_USED: LSD 0.32 mg/kg i.p.; antagonist 1 mg/kg i.v. after 8 min; monitored until 40 min after agonist dosing
MEASURE: head-twitch response (cumulative head-twitches)

| COMPOUND | RESULT_VALUE |
| --- | --- |
| O=c1[nH]c2ccccc2n1CCN1CCN(c2cccc(C(F)(F)F)c2)CC1 [flibanserin] | partially suppressed |
| N#Cc1c[nH]c2c(C(=O)N3CCN(CCc4ccc(F)cc4)CC3)cccc12 [pruvanserin] | completely suppressed |
| Cc1nc2sccn2c(=O)c1CCN1CCC(=C(c2ccc(F)cc2)c2ccc(F)cc2)CC1 [ritanserin] | partially suppressed |
| COc1ccc(NC(=O)Nc2ccc(F)cc2F)cc1-c1c(Br)cnn1C [nelotanserin] | partially suppressed |
| COc1cccc([C@H](O)C2CCN(CCc3ccc(F)cc3)CC2)c1OC [volinanserin] | completely suppressed |
